All figures here come from patent EP2301627A1.

# System: L-6 cells
# test: Cytotoxicity, same Alamar Blue assay with L-6 cells
# Format: cell-based
# assaySetup: Rattus norvegicus, L6; L-6 cells; read-out: IC50 Cytox
Listed here: items and their measured pIC50.
# log scale: pIC50 equals minus log10 of the concentration in mol/L

input: Please give the measured pIC50 for this compound: C[C@@H]1CC[C@H]2[C@@H](C)C(=O)O[C@@H]3O[C@@]4(C)CC[C@@H]1[C@]32OO4 [Artemisinin]
output: 3.35

input: What would you report for c1ccc([C@@H]2CC3(N4CCCC4)CNCC2[C@H](c2ccccc2)C3)cc1 (racemic) [Example 1] ?
output: 4.14

input: Moving on to the next compound: N=C(N)c1ccc(OCCCCCOc2ccc(C(=N)N)cc2)cc1 [Pentamidine]
output: 2.33
